# Tgt: Human cGAS amino acids 155-522 (Homo sapiens (Human), UniProt Q8N884)
# Sequence (Q8N884 157-522): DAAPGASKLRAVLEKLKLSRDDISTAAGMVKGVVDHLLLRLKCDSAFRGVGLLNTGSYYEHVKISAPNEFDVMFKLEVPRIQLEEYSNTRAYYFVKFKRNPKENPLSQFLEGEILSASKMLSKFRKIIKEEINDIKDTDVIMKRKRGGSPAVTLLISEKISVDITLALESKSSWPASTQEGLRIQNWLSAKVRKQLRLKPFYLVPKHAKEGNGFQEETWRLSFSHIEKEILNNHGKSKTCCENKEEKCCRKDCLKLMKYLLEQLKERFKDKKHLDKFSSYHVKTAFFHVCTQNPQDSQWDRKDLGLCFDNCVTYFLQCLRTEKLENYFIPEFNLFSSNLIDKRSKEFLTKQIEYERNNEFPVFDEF
# Experiment: cGAS biochemical activity assay (ATP remaining, Kinase-Glo Max luminescence)
# Recorded Conditions: human cGAS 155-522, ATP remaining (Kinase-Glo Max); read-out: cGAS IC50

>  <Compound>
Cc1[nH]c2c(-c3ccccc3)c(C(F)(F)F)nn2c(=O)c1C(=O)Nc1cccc(Cl)c1

>  <IC50>
< 20 µM

$$$$
>  <Compound>
CC(=O)N1CCC(NC(=O)c2c(C)[nH]c3c(-c4ccccc4)c(C(F)(F)F)nn3c2=O)CC1

>  <IC50>
20 to 250 µM

$$$$
>  <Compound>
Cc1[nH]c2c(-c3ccccc3)c(C(F)(F)F)nn2c(=O)c1-c1nc(C(=O)O)c(C2CCCCC2)o1

>  <IC50>
< 20 µM

$$$$
>  <Compound>
COc1cccc2oc(-c3c(C)[nH]c4c(-c5ccccc5)c(C(C)=O)nn4c3=O)nc12

>  <IC50>
< 20 µM

$$$$
>  <Compound>
COCc1nc(-c2c(C)[nH]c3c(-c4ccccc4)c(C(F)(F)F)nn3c2=O)oc1C(C)C

>  <IC50>
< 20 µM

$$$$
>  <Compound>
CO[C@@H]1CCCC[C@H]1c1nnc(-c2c(C)[nH]c3c(-c4ccccc4)c(C(F)(F)F)nn3c2=O)o1

>  <IC50>
< 20 µM

$$$$
>  <Compound>
Cc1[nH]c2c(-c3ccccc3)c(C(F)(F)F)nn2c(=O)c1-c1nnc(C2CCCCN2C(=O)OC(C)(C)C)o1 (stereo not shown)

>  <IC50>
20 to 250 µM

$$$$
>  <Compound>
COc1c(Br)ccc2oc(-c3c(C)[nH]c4c(-c5ccccc5)c(C(F)(F)F)nn4c3=O)nc12

>  <IC50>
< 20 µM

$$$$
>  <Compound>
Cc1[nH]c2c(-c3ccccc3)c(C(F)(F)F)nn2c(=O)c1-c1nnc(C2COCCN2C(=O)OCc2ccccc2)o1 (stereo not shown)

>  <IC50>
20 to 250 µM

$$$$
>  <Compound>
Cc1[nH]c2c(-c3ccccc3)c(C(F)(F)F)nn2c(=O)c1-c1nc2c(S(C)(=O)=O)cccc2o1

>  <IC50>
20 to 250 µM

$$$$

====

# Tgt: Human cGAS amino acids 155-522 (Homo sapiens (Human), UniProt Q8N884)
# Experiment: cGAS biochemical activity assay (ATP remaining, Kinase-Glo Max luminescence)
# Recorded Conditions: human cGAS 155-522, ATP remaining (Kinase-Glo Max); read-out: cGAS IC50
pIC50: −log10 of the molar value.
Reported Metric: pIC50

>  <Compound>
Cc1[nH]c2c(-c3cccc(F)c3)c(C(F)(F)F)nn2c(=O)c1-c1nc2c(o1)CCCC2 [Compound C1035]

>  <Tgt>
Human cGAS amino acids 155-522 (Homo sapiens (Human), UniProt Q8N884)

>  <Observed Value>
< 3.60

$$$$
>  <Compound>
Cc1[nH]c2c(-c3ccccc3)c(C(F)(F)F)nn2c(=O)c1-c1nc2c(C(N)=O)cccc2o1 [Compound C1074]

>  <Tgt>
Human cGAS amino acids 155-522 (Homo sapiens (Human), UniProt Q8N884)

>  <Observed Value>
3.60 to 4.70

$$$$
>  <Compound>
COCCOc1nn2c(=O)c(-c3nc4c(OC)cccc4o3)c(C)[nH]c2c1-c1ccccc1 [Compound C1083]

>  <Tgt>
Human cGAS amino acids 155-522 (Homo sapiens (Human), UniProt Q8N884)

>  <Observed Value>
< 3.60

$$$$
>  <Compound>
COCc1[nH]c2c(-c3ccccc3)c(C#N)nn2c(=O)c1-c1nc2c(OC)cc(Cl)cc2o1 [Compound C1145]

>  <Tgt>
Human cGAS amino acids 155-522 (Homo sapiens (Human), UniProt Q8N884)

>  <Observed Value>
> 4.70

$$$$
>  <Compound>
Cc1[nH]c2c(C(C)C)c(C(F)(F)F)nn2c(=O)c1Cc1ccccc1 [Compound C1268]

>  <Tgt>
Human cGAS amino acids 155-522 (Homo sapiens (Human), UniProt Q8N884)

>  <Observed Value>
< 3.60

$$$$
>  <Compound>
CCOC(=O)Cc1[nH]c2c(-c3ccccc3)c(C(F)(F)F)nn2c(=O)c1-c1nc2c(OC)cccc2o1 [Compound C1140]

>  <Tgt>
Human cGAS amino acids 155-522 (Homo sapiens (Human), UniProt Q8N884)

>  <Observed Value>
3.60 to 4.70

$$$$
>  <Compound>
Cc1[nH]c2c(-c3ccccc3)c(C(F)(F)F)nn2c(=O)c1-c1nnc(C2CCCN(C(=O)OC(C)(C)C)C2)o1 (stereo not shown) [Compound D1031]

>  <Tgt>
Human cGAS amino acids 155-522 (Homo sapiens (Human), UniProt Q8N884)

>  <Observed Value>
3.60 to 4.70

$$$$
>  <Compound>
Cc1[nH]c2c(-c3ccccc3)c(C#N)nn2c(=O)c1-c1nc2cc(N)ccc2o1 [Compound C1181]

>  <Tgt>
Human cGAS amino acids 155-522 (Homo sapiens (Human), UniProt Q8N884)

>  <Observed Value>
> 4.70

$$$$
>  <Compound>
Cc1[nH]c2c(-c3ccccc3)c(C(F)(F)F)nn2c(=O)c1C(=O)Nc1nc[nH]n1 [Compound A1040]

>  <Tgt>
Human cGAS amino acids 155-522 (Homo sapiens (Human), UniProt Q8N884)

>  <Observed Value>
3.60 to 4.70

$$$$
>  <Compound>
CO[C@H]1CCCC1c1nnc(-c2c(C)[nH]c3c(-c4ccccc4)c(C(F)(F)F)nn3c2=O)o1 (stereo partly shown) [D1049 Iso-1]

>  <Tgt>
Human cGAS amino acids 155-522 (Homo sapiens (Human), UniProt Q8N884)

>  <Observed Value>
> 4.70

$$$$

====

# Tgt: Human cGAS amino acids 155-522 (Homo sapiens (Human))
# Experiment: cGAS biochemical activity assay (ATP remaining, Kinase-Glo Max luminescence)
# Recorded Conditions: human cGAS 155-522, ATP remaining (Kinase-Glo Max); read-out: cGAS IC50
pIC50: −log10 of the molar value.
Recorded pIC50 by entry

>  <Molecule>
CNc1cccc2oc(-c3c(C)[nH]c4c(-c5ccccc5)c(C#N)nn4c3=O)nc12 [Compound C1274]

>  <Tgt>
Human cGAS amino acids 155-522 (Homo sapiens (Human))

>  <pIC50>
> 4.70

$$$$
>  <Molecule>
CC(=O)NCCOc1cccc2oc(-c3c(C)[nH]c4c(-c5ccccc5)c(C(F)(F)F)nn4c3=O)nc12 [Compound C1062]

>  <Tgt>
Human cGAS amino acids 155-522 (Homo sapiens (Human))

>  <pIC50>
> 4.70

$$$$
>  <Molecule>
Cc1[nH]c2c(-c3ccccc3)c(C(F)(F)F)nn2c(=O)c1C(=O)Nc1cc[nH]n1 [Compound A1076]

>  <Tgt>
Human cGAS amino acids 155-522 (Homo sapiens (Human))

>  <pIC50>
> 4.70

$$$$
>  <Molecule>
Cc1nc(-c2c(C)[nH]c3c(-c4ccccc4)c(C(F)(F)F)nn3c2=O)[nH]c1C [Compound C1021]

>  <Tgt>
Human cGAS amino acids 155-522 (Homo sapiens (Human))

>  <pIC50>
3.60 to 4.70

$$$$
>  <Molecule>
CC(=O)Nc1cccc2nc(-c3c(C)[nH]c4c(-c5ccccc5)c(C(F)(F)F)nn4c3=O)[nH]c12 [Compound C1009]

>  <Tgt>
Human cGAS amino acids 155-522 (Homo sapiens (Human))

>  <pIC50>
> 4.70

$$$$
>  <Molecule>
Cc1[nH]c2c(-c3ccccc3)c(C(F)(F)F)nn2c(=O)c1-c1nnc(N2CCCC(CN)C2)o1 (centres unmarked) [Compound D1083]

>  <Tgt>
Human cGAS amino acids 155-522 (Homo sapiens (Human))

>  <pIC50>
3.60 to 4.70

$$$$
>  <Molecule>
Cc1[nH]c2c(-c3ccccc3)c(C#N)nn2c(=O)c1-c1nc2c(N(C)C)cccc2o1 [Compound C1272]

>  <Tgt>
Human cGAS amino acids 155-522 (Homo sapiens (Human))

>  <pIC50>
> 4.70

$$$$
>  <Molecule>
COc1ccc(S(C)(=O)=O)c2oc(-c3c(C)[nH]c4c(-c5ccccc5)c(C(F)(F)F)nn4c3=O)nc12 [Compound C1125]

>  <Tgt>
Human cGAS amino acids 155-522 (Homo sapiens (Human))

>  <pIC50>
> 4.70

$$$$
>  <Molecule>
Cc1[nH]c2c(-c3ccccc3)c(C(F)(F)F)nn2c(=O)c1-c1nnc(C2(C)CCCOC2)o1 (centres unmarked) [Compound D1051]

>  <Tgt>
Human cGAS amino acids 155-522 (Homo sapiens (Human))

>  <pIC50>
3.60 to 4.70

$$$$
>  <Molecule>
Cc1[nH]c2c(-c3ccccc3)c(C(F)(F)F)nn2c(=O)c1C(=O)Nc1ccccc1S(=O)(=O)C(C)C [Compound A1051]

>  <Tgt>
Human cGAS amino acids 155-522 (Homo sapiens (Human))

>  <pIC50>
> 4.70

$$$$
>  <Molecule>
C=Cc1nn2c(=O)c(-c3nc4c(OC)cccc4o3)c(C)[nH]c2c1-c1ccccc1 [Compound C1241]

>  <Tgt>
Human cGAS amino acids 155-522 (Homo sapiens (Human))

>  <pIC50>
> 4.70

$$$$
>  <Molecule>
Cc1[nH]c2c(-c3ccccc3)c(C(F)(F)F)nn2c(=O)c1-c1nc(CO)co1 [Compound C1104]

>  <Tgt>
Human cGAS amino acids 155-522 (Homo sapiens (Human))

>  <pIC50>
> 4.70

$$$$
>  <Molecule>
COc1ccccc1S(=O)(=O)NC(=O)c1c(C)[nH]c2c(-c3ccccc3)c(C(F)(F)F)nn2c1=O [Compound A1121]

>  <Tgt>
Human cGAS amino acids 155-522 (Homo sapiens (Human))

>  <pIC50>
> 4.70

$$$$
>  <Molecule>
Cc1[nH]c2c(-c3ccccc3)c(C(F)(F)F)nn2c(=O)c1-c1nnc(C2CCCCC2N)o1 (centres unmarked) [Compound D1080]

>  <Tgt>
Human cGAS amino acids 155-522 (Homo sapiens (Human))

>  <pIC50>
< 3.60

$$$$
>  <Molecule>
COc1cccc(NC(=O)c2c(C)[nH]c3c(-c4ccccc4)c(S(C)(=O)=O)nn3c2=O)c1 [Compound A1126]

>  <Tgt>
Human cGAS amino acids 155-522 (Homo sapiens (Human))

>  <pIC50>
< 3.60

$$$$
>  <Molecule>
COCc1ccccc1NC(=O)c1c(C)[nH]c2c(-c3ccccc3)c(C(F)(F)F)nn2c1=O [Compound A1072]

>  <Tgt>
Human cGAS amino acids 155-522 (Homo sapiens (Human))

>  <pIC50>
3.60 to 4.70

$$$$
>  <Molecule>
Cc1[nH]c2c(C3CCCC3)c(C(F)(F)F)nn2c(=O)c1-c1nnc(C2CCCCC2)o1 [Compound D1017]

>  <Tgt>
Human cGAS amino acids 155-522 (Homo sapiens (Human))

>  <pIC50>
< 3.60

$$$$

Hello, the source for this data is patent US10738056B2, in case you need it.
